Data provenance: patent US8455475B2

- Test System: rat B1R (bradykinin receptor 1) (Rattus norvegicus, UniProt P97583)
- Construct: expressed in transfected cells; host or cells: CHO K1 cells
- Assay: FLIPR Ca2+ assay (Fluo-4) on CHO K1 cells stably transfected with the B1R gene of the rat (rB1R cells): % inhibition at 10 μM / IC50, agonist Des-Arg9-bradykinin
- Type: cell-based
- Test Settings: CHO-K1, rat B1R
Quantity Measured: inhibition at 10 µM (%)

N#Cc1cccc(CN2CCC3(CC2)CCN(C(=O)c2ccc4c(c2)C(NC(=O)c2cc(Cl)ccc2F)CC4)C3)c1 (stereo not shown) [IND_CC-651]
76
O=C(c1ccc2c(c1)C(N(C(=O)c1ccccc1Cl)C1CC1)CC2)N1CCC2(CCN(c3ccncc3)CC2)C1 (stereo not shown) [Ind_CC-118]
103
COc1ccc(C(=O)NC2CCc3ccc(C(=O)N4CCC5(CC4)CCN(c4ccncc4)C5)cc32)c(F)c1 (stereo not shown) [IND_CC-298]
74
O=C(N[C@@H]1CCc2cc(F)c(C(=O)N3CCC4(CC3)CCN(c3ccncc3)CC4)cc21)c1ccccc1Cl [Example H-90]
103
CN(C)C1(c2ccc(F)cc2)CCC2(CCN(C(=O)c3ccc4c(c3)C(NC(=O)c3sccc3Cl)CC4)CC2)CC1 (stereo not shown) [Ind_CC-105]
86
CC(C)(C)CC(=O)NC1CCc2ccc(C(=O)N3CCC4(CC3)CCN(c3ccncc3)C4)cc21 (stereo not shown) [IND_CC-373]
102
O=C(NC1CCc2ccc(C(=O)N3CCC4(CCN(CCc5ccccc5)CC4)C3)cc21)c1c(F)cccc1Cl (stereo not shown) [IND_CC-780]
101

----------
- Test System: rat B1R (bradykinin receptor 1) (Rattus norvegicus)
- Construct: expressed in transfected cells; host or cells: CHO K1 cells
- Assay: FLIPR Ca2+ assay (Fluo-4) on CHO K1 cells stably transfected with the B1R gene of the rat (rB1R cells): % inhibition at 10 μM / IC50, agonist Des-Arg9-bradykinin
- Type: cell-based
- Test Settings: CHO-K1, rat B1R
Quantity Measured: inhibition at 10 µM (%)

Cc1cccc(Cl)c1S(=O)(=O)NC1CCc2ccc(C(=O)N3CCC4(CC3)CCN(c3ccc(C(F)(F)F)cc3)CC4)cc21 (stereo not shown) [IND_CC-239]
71
O=C(NC1CCc2ccc(C(=O)N3CCC4(CCN(c5ccncc5)CC4)C3)cc21)C1CC1 (stereo not shown) [IND_CC-370]
100
CC(C)(C)CC(=O)N1CCC2(CC1)CCN(C(=O)c1ccc3c(c1)C(NC(=O)c1ccccc1Cl)CC3)C2 (stereo not shown) [IND_CC-574]
101
O=C(c1ccc2c(c1)C(NS(=O)(=O)c1cc(Cl)c(Cl)cc1Cl)CC2)N1CCC2(CC1)CCN(c1ccncc1)C2 (stereo not shown) [IND_CC-363]
74
CC1(C)CC(NC(=O)C(c2ccccc2)c2ccccc2Cl)c2cc(C(=O)N3CCC4(CC3)CCN(c3ccncc3)CC4)ccc21 (stereo not shown) [Ind_CC-056]
94
O=C(NC1CCc2ccc(C(=O)N3CCC4(CC3)CCN(c3cccnc3)CC4)cc21)c1ccccc1Cl (stereo not shown) [Ind_CC-096]
101
O=C(NC1CCc2ccc(C(=O)N3CCC4(CCN(c5ccncc5)CC4)C3)cc21)c1cc(C(F)(F)F)ccc1Cl (stereo not shown) [IND_CC-251]
99
Cn1cccc1CN1CCC2(CC1)CCN(C(=O)c1ccc3c(c1)C(NC(=O)c1c(F)cccc1Cl)CC3)CC2 (stereo not shown) [IND_CC-787]
93
CC1(C)CC(NC(=O)c2cc(Cl)ccc2Cl)c2cc(C(=O)N3CCC4(CC3)CCN(c3ccncc3)CC4)ccc21 (stereo not shown) [IND_CC-244]
103
COc1ccc(C(=O)N(C)C2CCc3ccc(C(=O)N4CCC5(CC4)CCN(c4ccncc4)CC5)cc32)c(F)c1 (stereo not shown) [IND_CC-296]
103
O=C(NC1CCc2ccc(C(=O)N3CCC4(CCN(Cc5ccc6ncccc6c5)CC4)CC3)cc21)c1cccc(Cl)c1Cl (stereo not shown) [IND_CC-754]
87
Cc1cccc(C)c1C(=O)NC1CCc2ccc(C(=O)N3CCC4(CC3)CCN(c3ccc(C(F)(F)F)cc3)CC4)cc21 (stereo not shown) [IND_CC-307]
103
CN(C1CCc2ccc(C(=O)N3CCC4(CC3)CCN(c3ccncc3)CC4)cc21)S(=O)(=O)c1ccc(Cl)cc1Cl (stereo not shown) [IND_CC-324]
98

----------
- Test System: rat B1R (bradykinin receptor 1) (Rattus norvegicus, UniProt P97583)
- Construct: expressed in transfected cells; host or cells: CHO K1 cells
- Assay: FLIPR Ca2+ assay (Fluo-4) on CHO K1 cells stably transfected with the B1R gene of the rat (rB1R cells): % inhibition at 10 μM / IC50, agonist Des-Arg9-bradykinin
- Type: cell-based
- Test Settings: CHO-K1, rat B1R
Quantity Measured: inhibition at 10 µM (%)

O=C(N[C@@H]1CCCc2cc(F)c(C(=O)N3CCC4(CCN(c5ccncc5)CC4)C3)cc21)c1ccccc1Cl [Example H-82]
104
Cc1noc(C)c1CN1CCC2(CC1)CCN(C(=O)c1ccc3c(c1)C(NC(=O)c1c(F)cccc1Cl)CC3)C2 (stereo not drawn) [IND_CC-738]
89
COc1ccc(CN2CCC3(CC2)CCN(C(=O)c2ccc4c(c2)C(NC(=O)c2cc(Cl)ccc2F)CC4)CC3)cc1F (stereo not drawn) [IND_CC-630]
53
O=C(NC1CCc2ccc(C(=O)N3CCC4(CC3)CCN(c3ccncc3)C4)cc21)c1c(Cl)cccc1Cl (stereo not drawn) [IND_CC-270]
108
O=C(NC1CCc2ccc(C(=O)N3CCC4(CCN(c5ccncc5)CC4)C3)cc21)C1CCCCC1 (stereo not drawn) [IND_CC-367]
104
O=C(N[C@@H]1CCCc2cc(F)c(C(=O)N3CCC4(CC3)CCN(c3ccncc3)C4)cc21)c1ccccc1Cl [Example H-87]
103

(I) O=C(NC1CCc2ccc(C(=O)N3CCC4(CCN(Cc5ccncc5)CC4)CC3)cc21)c1sccc1Cl (stereo not drawn) [Ind_CC-104]
(II) O=C(NC1CCc2ccc(C(=O)N3CCC4(CCN(C(=O)c5ccc(F)cc5F)CC4)C3)cc21)c1sccc1Cl (stereo not drawn) [IND_CC-585]
Query: Lab notebook, comparison: I versus II , higher inhibition at 10 µM goes to which? Label of pick, please.
Result: I
(I: 102%, II: 52%)

(A) O=C(NC1CCc2ccc(C(=O)N3CCC4(CCN(c5ccncc5)CC4)C3)cc21)c1ccccc1F (stereo not drawn) [IND_CC-402]
(B) O=C(NC1CCc2ccc(C(=O)N3CCC4(CCN(Cc5c(F)cccc5Cl)CC4)C3)cc21)c1cccc(Cl)c1Cl (stereo not drawn) [IND_CC-725]
Query: # compare inhibition at 10 µM for A vs B ; return the one with the smaller value Label of pick, please.
Result: B
(B: 56%, A: 102%)

----------
- Test System: rat B1R (bradykinin receptor 1) (Rattus norvegicus, UniProt P97583)
- Construct: expressed in transfected cells; host or cells: CHO K1 cells
- Sequence (P97583 1-337): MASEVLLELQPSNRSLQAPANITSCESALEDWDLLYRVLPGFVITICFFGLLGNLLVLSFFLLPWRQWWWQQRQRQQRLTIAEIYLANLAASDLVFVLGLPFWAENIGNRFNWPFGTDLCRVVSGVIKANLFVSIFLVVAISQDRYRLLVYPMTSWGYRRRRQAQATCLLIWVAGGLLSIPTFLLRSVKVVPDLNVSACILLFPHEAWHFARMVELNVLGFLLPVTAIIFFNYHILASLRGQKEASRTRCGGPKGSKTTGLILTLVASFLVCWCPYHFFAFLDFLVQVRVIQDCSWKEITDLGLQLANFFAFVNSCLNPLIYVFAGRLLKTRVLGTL
- Assay: FLIPR Ca2+ assay (Fluo-4) on CHO K1 cells stably transfected with the B1R gene of the rat (rB1R cells): % inhibition at 10 μM / IC50, agonist Des-Arg9-bradykinin
- Assay type: cell-based
- Test Settings: CHO-K1, rat B1R
- Description: The agonistic or antagonistic action of substances can be quantified on the bradykinin receptor 1 (B1R) of the human and rat species with ectopically expressing cell lines (CHO K1 cells) and with the aid of a Ca^2+-sensitive dyestuff (Fluo-4) in a fluorescent imaging plate reader (FLIPR). […] The agonistic or antagonistic action of substances can be determined on the bradykinin receptor 1 (B1R) of the human and rat species with the following assay. […]
Quantity Measured: inhibition at 10 µM (%)

N#Cc1ccc(CN2CCC3(CC2)CCN(C(=O)c2ccc4c(c2)C(NC(=O)c2cc(Cl)ccc2F)CC4)C3)cc1 (stereo not shown) [IND_CC-650]
54
O=C(NC1CCc2ccc(C(=O)N3CCC4(CCN(c5ccncc5)CC4)C3)cc21)c1ccccn1 (stereo not shown) [Ind_CC-084]
100
CN(C(=O)c1ccccc1Cl)C1CCc2ccc(C(=O)N3CCC4(CCN(Cc5cccc(C#N)c5)CC4)C3)cc21 (stereo not shown) [IND_CC-572]
80
CCC(CC)CN1CCC2(CC1)CCN(C(=O)c1ccc3c(c1)C(NC(=O)c1cc(C(F)(F)F)ccc1Cl)CC3)CC2 (stereo not shown) [IND_CC-699]
75
